What Relative cAMP EC50 was measured for each of the following?
- TARGET OF ASSAY: T1, human GIP receptor (human) (UniProt P48546)
- T1 sequence (looked up): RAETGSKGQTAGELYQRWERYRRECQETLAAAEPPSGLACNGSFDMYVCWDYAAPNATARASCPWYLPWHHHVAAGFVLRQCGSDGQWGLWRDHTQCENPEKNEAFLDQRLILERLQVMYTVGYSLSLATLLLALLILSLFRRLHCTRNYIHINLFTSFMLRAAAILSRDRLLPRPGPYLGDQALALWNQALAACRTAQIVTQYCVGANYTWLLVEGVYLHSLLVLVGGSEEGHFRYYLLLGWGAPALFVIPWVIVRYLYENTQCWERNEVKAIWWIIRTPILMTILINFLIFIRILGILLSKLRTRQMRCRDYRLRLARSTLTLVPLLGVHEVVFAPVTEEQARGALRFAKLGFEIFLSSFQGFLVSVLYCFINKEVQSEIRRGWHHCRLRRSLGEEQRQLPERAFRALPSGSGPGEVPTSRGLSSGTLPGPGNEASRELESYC
- ASSAY METHOD TEXT: cell-based or functional assay
Non-standard residues stand in square brackets, D forms with d. No end group written: not given here. αMePhe(2-F) = C[C@](N)(Cc1ccccc1F)C(=O)O; Aib = CC(C)(N)C(=O)O
Please give a number only; it is taken to be in nM.

# input For YXQGTFTSDXSQXLDXKAQXAFIEYLIAGGPSSGEPPPSGSE (synthetic construct; SITE 2: note = 2-Aminoisobutyric Acid; SITE 10: note = 3-(4-Pyridyl)-L-alanine; SITE 13: note = alpha-methyl-leucine; SITE 16: note = L-ornithine; SITE 17: note = Lysine is chemically modified through conjugation of the epsilon-amino group of the Lysine side chain with (gamma-Gl)) [Example 977] , what is its reported Relative cAMP EC50?
# output 0.189

# input For YXQGTXTSDXXIXLEXKAQXEFIEXLVEGGPSSGAPPPSGS (synthetic construct; SITE 2: note = 2-Aminoisobutyric Acid; SITE 6: note = alpha-methyl-2-fluoro-L-phenylalanine; SITE 10: note = 3-(4-Pyridyl)-L-alanine; SITE 11: note = alpha-methyl-L-serine; SITE 13: note = alpha-methyl-leucine; SITE 16: note = L-ornithine; SITE 17: note = Lysine is chemically mo) [Example 768] , what is its reported Relative cAMP EC50?
# output 0.0294

# input For YXQGTXTSDXXIXLDXKAQXEFIEXLIEGGPSSGEPPPGGE (non-natural residues; lipidated Lys AEEA-γGlu-C18 diacid; C-term amide; synthetic construct; SITE 2: note = 2-Aminoisobutyric Acid; SITE 6: note = alpha-methyl-2-fluoro-L-phenylalanine; SITE 10: note = 3-(4-Pyridyl)-L-alanine; SITE 11: note = alpha-methyl-L-serine; SITE 13: note = alpha-methyl-leucine; SITE 16: note = L-ornithine; SITE 17: note = Lysine is chemically mo) [Example 1145] , what is its reported Relative cAMP EC50?
# output 0.00689

# input For YXQGTFTSDXSQXLDXKAQXAFIEYLLAGGPSSGAPPPSGSEE (non-natural residues, lipidated Lys, C-terminal amide; synthetic construct; SITE 2: note = 2-Aminoisobutyric Acid; SITE 10: note = 3-(4-Pyridyl)-L-alanine; SITE 13: note = alpha-methyl-leucine; SITE 16: note = L-ornithine; SITE 17: note = Lysine is chemically modified through conjugation of the epsilon-amino group of the Lysine side chain with (Glu)-(ga)) [Example 1057] , what is its reported Relative cAMP EC50?
# output 0.128

# input For YXQGTFTSDFSRXLDKKAQXAFIEYLIEXGESSGAPPPSGS (C-terminal amide; lysine acylated with AEEA-γ-Glu-C18 diacid; synthetic construct; SITE 2: note = 2-Aminoisobutyric Acid; SITE 13: note = alpha-methyl-leucine; SITE 17: note = Lysine is chemically modified through conjugation of the epsilon-amino group of the Lysine side chain with (2-[2-(2-Amino-ethoxy)-ethoxy]-acetyl)-(gamma-Glu)-CO-(CH2) 16-CO2H; SITE 20: n) [Example 221] , what is its reported Relative cAMP EC50?
# output 0.105

# input For YXQGTFTSDFSXXLDKKAQXAFIEWLLEGGHSSGEPPPSGE (synthetic construct; SITE 2: note = 2-Aminoisobutyric Acid; SITE 12: note = L-ornithine; SITE 13: note = alpha-methyl-leucine; SITE 17: note = Lysine is chemically modified through conjugation of the epsilon-amino group of the Lysine side chain with (2-[2-(2-Amino-ethoxy)-ethoxy]-acetyl)-(gamma-Glu)) [Example 124] , what is its reported Relative cAMP EC50?
# output 0.344

# input For YXQGTFTSDFSKXLDKKAQXAFIEYLLEGGPSSGEPPPEEG (not fully specified; Aib, αMeL; acylated Lys; C-terminal amide; synthetic construct; SITE 2: note = 2-Aminoisobutyric Acid; SITE 13: note = alpha-methyl-leucine; SITE 17: note = Lysine is chemically modified through conjugation of the epsilon-amino group of the Lysine side chain with (2-[2-(2-Amino-ethoxy)-ethoxy]-acetyl)-(gamma-Glu)-CO-(CH2) 18-CO2H; SITE 20: n) [Example 35] , what is its reported Relative cAMP EC50?
# output 0.55

# input For YXQGTXTSDXSIXLDKKAQXAFIEYLEEGGPSSGAPEPS (synthetic construct; SITE 2: note = 2-Aminoisobutyric Acid; SITE 6: note = alpha-methyl-2-fluoro-L-phenylalanine; SITE 10: note = 3-(4-Pyridyl)-L-alanine; SITE 13: note = alpha-methyl-leucine; SITE 17: note = Lysine is chemically modified through conjugation of the epsilon-amino group of the Lysine) [Example 443] , what is its reported Relative cAMP EC50?
# output 0.0291

# input For YXQGTFTSDXSXXLDKKAQXAFIEXLIEXGPSSGEPPPSGSE (non-natural residues; Lys acylated AEEA-(γGlu)2-C18 diacid; C-terminal amide; synthetic construct; SITE 2: note = 2-Aminoisobutyric Acid; SITE 10: note = 3-(4-Pyridyl)-L-alanine; SITE 12: note = L-ornithine; SITE 13: note = alpha-methyl-leucine; SITE 17: note = Lysine is chemically modified through conjugation of the epsilon-amino group of the Lysine side chain with (2-[2-(2-) [Example 988] , what is its reported Relative cAMP EC50?
# output 0.198

# input For YXQGTXTSDYSILLDKKAQXAFIEYLEEGGPSSGAPPPE (not fully specified; synthetic construct; SITE 2: note = 2-Aminoisobutyric Acid; SITE 6: note = alpha-methyl-2-fluoro-L-phenylalanine; SITE 17: note = Lysine is chemically modified through conjugation of the epsilon-amino group of the Lysine side chain with (2-[2-(2-Amino-ethoxy)-ethoxy]-acetyl)-(gamma-Glu)-CO-(CH2) 16-) [Example 388] , what is its reported Relative cAMP EC50?
# output 0.0462

# input For YXQGTFTSDFSXXLDKKAQXAFIEYLLEAGPSSGHPPPSGS (synthetic construct; SITE 2: note = 2-Aminoisobutyric Acid; SITE 12: note = L-ornithine; SITE 13: note = alpha-methyl-leucine; SITE 17: note = Lysine is chemically modified through conjugation of the epsilon-amino group of the Lysine side chain with (2-[2-(2-Amino-ethoxy)-ethoxy]-acetyl)2-(gamma-Glu)) [Example 253] , what is its reported Relative cAMP EC50?
# output 0.115

# input For YXQGTFTSDXSXXLDKKAQXAFIEXLIEGGPSSGAPPPSGS (synthetic construct; SITE 2: note = 2-Aminoisobutyric Acid; SITE 10: note = 3-(4-Pyridyl)-L-alanine; SITE 12: note = L-ornithine; SITE 13: note = alpha-methyl-leucine; SITE 17: note = Lysine is chemically modified through conjugation of the epsilon-amino group of the Lysine side chain with (gamma-Gl)) [Example 941] , what is its reported Relative cAMP EC50?
# output 0.183

# input For YXQGTXTSDYXIXLDXKAQXXFIEYLLEGGPSSGEPPPE (synthetic construct; SITE 2: note = 2-Aminoisobutyric Acid; SITE 6: note = alpha-methyl-L-phenylalanine; SITE 11: note = alpha-methyl-L-serine; SITE 13: note = alpha-methyl-leucine; SITE 16: note = L-ornithine; SITE 17: note = Lysine is chemically modified through conjugation of the epsilon-amino gr) [Example 391] , what is its reported Relative cAMP EC50?
# output 0.0298

# input For YXQGTFTSDFSXXLDKKAQXAFIEYLLAGGPSSGAPPPEGS (synthetic construct; SITE 2: note = 2-Aminoisobutyric Acid; SITE 12: note = L-ornithine; SITE 13: note = alpha-methyl-leucine; SITE 17: note = Lysine is chemically modified through conjugation of the epsilon-amino group of the Lysine side chain with (2-[2-(2-Amino-ethoxy)-ethoxy]-acetyl)-(gamma-Glu)) [Example 93] , what is its reported Relative cAMP EC50?
# output 0.162

# input For YXQGTFTSDXSKXLDKKAQXAFIEYLLAGGPSSGEPPPSGE (Aib, 4Pal, αMeL; acylated Lys; C-term amide; synthetic construct; SITE 2: note = 2-Aminoisobutyric Acid; SITE 10: note = 3-(4-Pyridyl)-L-alanine; SITE 13: note = alpha-methyl-leucine; SITE 17: note = Lysine is chemically modified through conjugation of the epsilon-amino group of the Lysine side chain with (2-[2-(2-Amino-ethoxy)-ethoxy]-acetyl)) [Example 28] , what is its reported Relative cAMP EC50?
# output 0.255

# input For YXQGTFTSDFSXXLDKKAQXAFIEYLLEGGPSSGAPPPGGSE (synthetic construct; SITE 2: note = 2-Aminoisobutyric Acid; SITE 12: note = L-ornithine; SITE 13: note = alpha-methyl-leucine; SITE 17: note = Lysine is chemically modified through conjugation of the epsilon-amino group of the Lysine side chain with (2-[2-(2-Amino-ethoxy)-ethoxy]-acetyl)-(gamma-Glu)) [Example 65] , what is its reported Relative cAMP EC50?
# output 0.739

# input For YXQGTFTSDFSXXLDKKAQXAFIEWLLEAGSSSGAPPPSGT (synthetic construct; SITE 2: note = 2-Aminoisobutyric Acid; SITE 12: note = L-ornithine; SITE 13: note = alpha-methyl-leucine; SITE 17: note = Lysine is chemically modified through conjugation of the epsilon-amino group of the Lysine side chain with (2-[2-(2-Amino-ethoxy)-ethoxy]-acetyl)-(gamma-Glu)) [Example 263] , what is its reported Relative cAMP EC50?
# output 0.169

# input For YXQGTFTSDFSQXLDKKAQXAFIEYLLEAGPSSGAPPPSGX (synthetic construct; SITE 2: note = 2-Aminoisobutyric Acid; SITE 13: note = alpha-methyl-leucine; SITE 17: note = Lysine is chemically modified through conjugation of the epsilon-amino group of the Lysine side chain with (2-[2-(2-Amino-ethoxy)-ethoxy]-acetyl)-(gamma-Glu)-CO-(CH2) 16-CO2H; SITE 20: n) [Example 777] , what is its reported Relative cAMP EC50?
# output 0.113

# input For YXQGTFTSDFSQXLDKKAQXAFIEYLLEXGPSSGAPPPSGX (synthetic construct; SITE 2: note = 2-Aminoisobutyric Acid; SITE 13: note = alpha-methyl-leucine; SITE 17: note = Lysine is chemically modified through conjugation of the epsilon-amino group of the Lysine side chain with (2-[2-(2-Amino-ethoxy)-ethoxy]-acetyl)-(gamma-Glu)-CO-(CH2) 16-CO2H; SITE 20: n) [Example 782] , what is its reported Relative cAMP EC50?
# output 0.0711

# input For YXQGTFTSDXSQXLDKKAQXAFIEXLIEXGPSSGAPPPSGTE (acylated Lys AEEA-γGlu-C18 diacid; non-natural residues; C-terminal amide; synthetic construct; SITE 2: note = 2-Aminoisobutyric Acid; SITE 10: note = 3-(4-Pyridyl)-L-alanine; SITE 13: note = alpha-methyl-leucine; SITE 17: note = Lysine is chemically modified through conjugation of the epsilon-amino group of the Lysine side chain with (2-[2-(2-Amino-ethoxy)-ethoxy]-acetyl)) [Example 1116] , what is its reported Relative cAMP EC50?
# output 0.134

# input For YXQGTFTSDFSXXLDKKAQXAFIEYLLEXGHSSGAPPPSGS (Aib, Orn, αMeL; lipidated Lys; C-terminal amide; synthetic construct; SITE 2: note = 2-Aminoisobutyric Acid; SITE 12: note = L-ornithine; SITE 13: note = alpha-methyl-leucine; SITE 17: note = Lysine is chemically modified through conjugation of the epsilon-amino group of the Lysine side chain with (2-[2-(2-Amino-ethoxy)-ethoxy]-acetyl)-(gamma-Glu)) [Example 243] , what is its reported Relative cAMP EC50?
# output 0.178

# input For YXQGTFTSDFSKXLDKKAQXAFIEYLLAGGPSSGEPPPSEG (Aib, αMeL, acylated Lys, C-terminal amide; synthetic construct; SITE 2: note = 2-Aminoisobutyric Acid; SITE 13: note = alpha-methyl-leucine; SITE 17: note = Lysine is chemically modified through conjugation of the epsilon-amino group of the Lysine side chain with (2-[2-(2-Amino-ethoxy)-ethoxy]-acetyl)2-(gamma-Glu)-CO-(CH2 )16-CO2H; SITE 20:) [Example 25] , what is its reported Relative cAMP EC50?
# output 0.128

# input For Y[Aib]QGT[αMePhe(2-F)]TSDYSKILDKIAQKAFIQYLIEGGPSSGEPPPSEG-NH2 (not fully specified (residue 20)) [Example 354] , what is its reported Relative cAMP EC50?
# output 0.134

# input For YXQGTXTSDXXIXLDXKAQXXFIEXLIEGGPSSGEPPPEGTGE (synthetic construct; SITE 2: note = 2-Aminoisobutyric Acid; SITE 6: note = alpha-methyl-2-fluoro-L-phenylalanine; SITE 10: note = 3-(4-Pyridyl)-L-alanine; SITE 11: note = alpha-methyl-L-serine; SITE 13: note = alpha-methyl-leucine; SITE 16: note = L-ornithine; SITE 17: note = Lysine is chemically mo) [Example 697] , what is its reported Relative cAMP EC50?
# output 0.0109
